# Target entity: HLA-A*02:01 (Homo sapiens, UniProt P04439, D140Y/D185E/D98H/E176V/E277Q/G131W/G231S/I119V/I121R/I166T/I218V/L300P/L318F/N151K/N90K/P208A/P217A/Q86G/Q94H/R138H/R169H/T345S)
# Assay protocol: MHC binding assay (UV-ligand exchange, ELISA, peptide exchange yield)
# Assay context: binding of HLA-class I restricted peptides to HLA-A*02:01
Assay metric: Peptide exchange (MHC class I binding score, peptide exchange yield)

Reference set (4 entries):
{"Substance": "2 (SLLEADPFL; listed as Homo sapiens) [compound 2]", "Readout value": "″+++″ (≥50% = +++)"}
{"Substance": "496 (FLVEKQPPQV; listed as Homo sapiens) [compound 496]", "Readout value": "″+++″ (≥50% = +++)"}
{"Substance": "620 (KLLNKIYEA; listed as Homo sapiens) [compound 620]", "Readout value": "″++++″ (≥75% = ++++)"}
{"Substance": "337 (HLLSELEAAPYL; listed as Homo sapiens) [compound 337]", "Readout value": "″++++″ (≥75% = ++++)"}

Exercise: What does the data say about its Peptide exchange (MHC class I binding score, peptide exchange yield)? Entry: 238 (YLISFQTHI; listed as Homo sapiens) [compound 238]
Key: ″+++″ (≥50% = +++)

----------
# Target entity: HLA-A*02:01 (Homo sapiens, UniProt P04439, D140Y/D185E/D98H/E176V/E277Q/G131W/G231S/I119V/I121R/I166T/I218V/L300P/L318F/N151K/N90K/P208A/P217A/Q86G/Q94H/R138H/R169H/T345S)
# Assay protocol: MHC binding assay (UV-ligand exchange, ELISA, peptide exchange yield)
# Assay context: binding of HLA-class I restricted peptides to HLA-A*02:01
Assay metric: Peptide exchange (MHC class I binding score, peptide exchange yield)

Below are worked cases with known answers.
{"Substance": "439 (YLLQEIYGI; listed as Homo sapiens) [compound 439]", "Readout value": "″+++″ (≥50% = +++)"}
{"Substance": "267 (ALQDFLLSV; listed as Homo sapiens) [compound 267]", "Readout value": "″+++″ (≥50% = +++)"}
{"Substance": "528 (SVAEGRALMSV; listed as Homo sapiens) [compound 528]", "Readout value": "″+++″ (≥50% = +++)"}
{"Substance": "612 (YLYNEGLSV; listed as Homo sapiens) [compound 612]", "Readout value": "″+++″ (≥50% = +++)"}
{"Substance": "35 (KINDTIYEV; listed as Homo sapiens) [compound 35]", "Readout value": "″+++″ (≥50% = +++)"}

Here is another substance to look at.
Exercise: Looking for the measured Peptide exchange (MHC class I binding score, peptide exchange yield) of 87 (ALPEAPAPLLPHIT; listed as Homo sapiens) [compound 87] , can you help?
Key: ″++″ (≥20% = ++)

----------
# Target entity: HLA-A*02:01 (Homo sapiens, UniProt P04439, D140Y/D185E/D98H/E176V/E277Q/G131W/G231S/I119V/I121R/I166T/I218V/L300P/L318F/N151K/N90K/P208A/P217A/Q86G/Q94H/R138H/R169H/T345S)
# Assay protocol: MHC binding assay (UV-ligand exchange, ELISA, peptide exchange yield)
# Assay context: binding of HLA-class I restricted peptides to HLA-A*02:01
Assay metric: Peptide exchange (MHC class I binding score, peptide exchange yield)

{"Substance": "44 (ILDPISSGFLL; listed as Homo sapiens) [compound 44]", "Readout value": "″++″ (≥20% = ++)"}
{"Substance": "565 (ALQETPTSV; listed as Homo sapiens) [compound 565]", "Readout value": "″++″ (≥20% = ++)"}
